Molecular target: Estrogen receptor (Homo sapiens, UniProt P03372);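 also: potency for inhibiting coactivator peptide recruitment to the receptor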
Sequence (P03372 whole entry): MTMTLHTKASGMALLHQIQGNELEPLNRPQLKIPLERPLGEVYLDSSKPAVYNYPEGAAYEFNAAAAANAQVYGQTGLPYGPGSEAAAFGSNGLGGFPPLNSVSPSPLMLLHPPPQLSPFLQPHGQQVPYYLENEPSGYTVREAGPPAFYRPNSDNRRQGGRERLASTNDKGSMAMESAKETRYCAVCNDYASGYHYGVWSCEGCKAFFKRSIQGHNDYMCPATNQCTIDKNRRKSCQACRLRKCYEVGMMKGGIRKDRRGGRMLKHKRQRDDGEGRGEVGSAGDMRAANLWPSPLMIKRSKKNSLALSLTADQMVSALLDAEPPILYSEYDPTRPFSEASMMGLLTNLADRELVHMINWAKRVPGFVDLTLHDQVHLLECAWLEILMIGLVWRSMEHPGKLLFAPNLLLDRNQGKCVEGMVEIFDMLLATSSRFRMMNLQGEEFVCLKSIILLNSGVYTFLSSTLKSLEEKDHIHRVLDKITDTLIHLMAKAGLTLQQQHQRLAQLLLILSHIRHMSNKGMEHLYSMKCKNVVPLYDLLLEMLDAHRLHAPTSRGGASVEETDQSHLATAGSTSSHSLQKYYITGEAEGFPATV
Calls of active or inactive are those of the source.
IC50 values for the compounds below.

In the examples that follow, each entry is paired with its recorded IC50.
| Compound | Observed |
| --- | --- |
| Cc1ccc(NC(=O)/C(=C/c2cccc([N+](=O)[O-])c2)NC(=O)C2CCCCC2)c(C)c1 | > 50 µM (not active) |
| O=C(O)C(O)c1ccco1 (stereo not given) | > 50 µM (not active) |
| O=C(CSc1cccc(C(F)(F)F)c1)NC(=O)NCc1ccco1 | > 50 µM (not active) |
| COc1ccc(-c2cc(-c3cccs3)c(C#N)c(SCC(=O)NCc3ccco3)n2)cc1 | > 50 µM (not active) |

Measured IC50 (Estrogen receptor (Homo sapiens, UniProt P03372)), entry O=C(c1cc2ncc(Br)cn2n1)N1CCN(C(=O)c2ccco2)CC1 : 17.9 µM (active)

* * *

Biological target: Corticotropin-releasing factor receptor 2/Corticotropin-releasing factor-binding protein (Homo sapiens, UniProt P24387+Q13324)
Sequence (Q13324 whole entry): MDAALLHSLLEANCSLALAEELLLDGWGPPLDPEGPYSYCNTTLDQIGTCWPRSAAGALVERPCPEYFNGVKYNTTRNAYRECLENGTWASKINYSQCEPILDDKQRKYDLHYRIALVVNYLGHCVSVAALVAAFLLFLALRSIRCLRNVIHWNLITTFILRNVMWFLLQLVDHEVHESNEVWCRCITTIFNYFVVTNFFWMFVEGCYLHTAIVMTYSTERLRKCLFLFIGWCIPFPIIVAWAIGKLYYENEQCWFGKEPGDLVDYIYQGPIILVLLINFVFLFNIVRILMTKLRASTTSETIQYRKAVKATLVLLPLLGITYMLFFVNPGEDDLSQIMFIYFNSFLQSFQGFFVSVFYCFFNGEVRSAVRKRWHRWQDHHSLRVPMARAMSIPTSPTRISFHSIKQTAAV
Sequence (P24387 whole entry): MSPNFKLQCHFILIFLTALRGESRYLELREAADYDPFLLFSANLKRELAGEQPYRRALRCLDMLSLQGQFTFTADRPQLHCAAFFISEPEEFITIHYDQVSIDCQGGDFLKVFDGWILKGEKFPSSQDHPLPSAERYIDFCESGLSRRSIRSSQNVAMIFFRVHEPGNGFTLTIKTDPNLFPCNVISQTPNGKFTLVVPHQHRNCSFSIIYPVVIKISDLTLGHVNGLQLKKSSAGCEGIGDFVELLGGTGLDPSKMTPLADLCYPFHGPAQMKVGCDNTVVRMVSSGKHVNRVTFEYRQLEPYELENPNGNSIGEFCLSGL
Assay: activators of CRF receptor 2 with binding protein – uHTS hits, confirmation (AID 602473)
Assay type: functional
Settings: read-out: EC50_Mean
Calls of active or inactive are those of the source.
One label from this list, please: active, inactive

Reference set, count: 4
| Structure notation | Label value |
| --- | --- |
| Cc1cc(C)cc(NC(=O)Cn2nnc(C(=O)NCc3ccc(F)cc3)c2N)c1 | inactive |
| CCO[C@@H]1OC(C(N)=O)=C[C@H](C(C)(C)C)[C@H]1CCCO | inactive |
| COc1cc(C(=O)O)c2ccccc2n1 | inactive |
| Cc1cc(C)cc(NC(=O)c2nnn(Cc3cc(C)ccc3C)c2N)c1 | active |

Tell me the recorded outcome of this test for Cc1c(-c2ccc(Cl)cc2)[n+]([O-])c(-c2ccccc2)c[n+]1[O-] .
inactive

What outcome does the record of this test show for O=c1c(/C=N/Nc2ccccc2)c(Sc2nnnn2-c2ccccc2)nc2ccccn12 ?
active

* * *

Molecular target: Peroxisome proliferator-activated receptor gamma/Nuclear receptor coactivator 3 (Homo sapiens);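 also: agonist potency for raising coactivator recruitment to the receptor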
Sequence (P37231 whole entry): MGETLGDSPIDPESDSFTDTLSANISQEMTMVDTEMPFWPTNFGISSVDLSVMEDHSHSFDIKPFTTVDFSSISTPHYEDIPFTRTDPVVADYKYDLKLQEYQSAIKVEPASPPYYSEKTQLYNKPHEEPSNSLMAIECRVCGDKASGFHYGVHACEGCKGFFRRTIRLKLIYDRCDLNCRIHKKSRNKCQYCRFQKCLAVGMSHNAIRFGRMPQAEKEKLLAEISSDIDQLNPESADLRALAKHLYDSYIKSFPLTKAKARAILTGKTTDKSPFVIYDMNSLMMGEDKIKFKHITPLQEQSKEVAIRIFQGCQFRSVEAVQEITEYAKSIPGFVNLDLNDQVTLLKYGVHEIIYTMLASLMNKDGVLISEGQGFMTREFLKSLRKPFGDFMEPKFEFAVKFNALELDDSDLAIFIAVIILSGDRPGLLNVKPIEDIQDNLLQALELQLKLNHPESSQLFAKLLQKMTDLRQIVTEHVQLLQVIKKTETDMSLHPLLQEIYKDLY
Sequence (Q9Y6Q9 whole entry, further chain): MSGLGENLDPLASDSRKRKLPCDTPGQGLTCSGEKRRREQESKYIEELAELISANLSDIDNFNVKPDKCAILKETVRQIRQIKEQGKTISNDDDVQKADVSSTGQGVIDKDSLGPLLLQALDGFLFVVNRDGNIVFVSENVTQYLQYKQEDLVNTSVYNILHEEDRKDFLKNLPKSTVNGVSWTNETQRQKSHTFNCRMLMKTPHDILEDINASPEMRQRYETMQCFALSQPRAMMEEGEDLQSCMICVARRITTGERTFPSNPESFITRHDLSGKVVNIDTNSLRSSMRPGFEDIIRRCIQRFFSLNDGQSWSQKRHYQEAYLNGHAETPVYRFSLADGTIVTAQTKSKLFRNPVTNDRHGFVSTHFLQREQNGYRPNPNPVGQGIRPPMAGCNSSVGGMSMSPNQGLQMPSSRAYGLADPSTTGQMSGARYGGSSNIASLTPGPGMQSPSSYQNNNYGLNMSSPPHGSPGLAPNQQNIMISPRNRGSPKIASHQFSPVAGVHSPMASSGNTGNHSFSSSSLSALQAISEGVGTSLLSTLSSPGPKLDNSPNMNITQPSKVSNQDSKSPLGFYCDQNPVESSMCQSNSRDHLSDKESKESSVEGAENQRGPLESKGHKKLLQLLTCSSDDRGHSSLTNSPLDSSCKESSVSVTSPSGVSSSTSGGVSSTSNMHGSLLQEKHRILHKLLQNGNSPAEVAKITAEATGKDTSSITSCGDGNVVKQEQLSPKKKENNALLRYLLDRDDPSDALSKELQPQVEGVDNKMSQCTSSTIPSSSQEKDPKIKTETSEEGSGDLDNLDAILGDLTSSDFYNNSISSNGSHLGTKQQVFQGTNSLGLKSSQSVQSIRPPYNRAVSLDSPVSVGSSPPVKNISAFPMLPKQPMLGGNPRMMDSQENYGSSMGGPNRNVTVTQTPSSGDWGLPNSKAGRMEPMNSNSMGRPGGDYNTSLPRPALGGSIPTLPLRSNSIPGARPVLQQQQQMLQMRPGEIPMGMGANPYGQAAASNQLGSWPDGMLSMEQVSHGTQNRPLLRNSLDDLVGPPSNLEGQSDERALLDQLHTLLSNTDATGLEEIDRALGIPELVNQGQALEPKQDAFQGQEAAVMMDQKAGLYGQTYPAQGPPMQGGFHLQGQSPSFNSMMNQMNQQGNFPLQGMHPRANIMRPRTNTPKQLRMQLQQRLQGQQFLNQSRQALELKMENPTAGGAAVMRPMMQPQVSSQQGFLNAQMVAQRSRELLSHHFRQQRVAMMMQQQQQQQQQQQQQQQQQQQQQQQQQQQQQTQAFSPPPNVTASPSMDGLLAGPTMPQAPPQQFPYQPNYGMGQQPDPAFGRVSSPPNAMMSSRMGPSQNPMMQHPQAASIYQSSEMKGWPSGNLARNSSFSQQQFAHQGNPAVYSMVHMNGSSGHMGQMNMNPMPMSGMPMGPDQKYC
Type: functional
The source made the active and inactive calls.
Reported EC50 values for the following compounds.

| Structure notation | EC50 |
| --- | --- |
| CCOC(=O)c1c(NC(=O)CSc2nnc(CNc3ccc(F)cc3)o2)sc(C(C)=O)c1C | > 79.4 µM (not active) |
| Cc1cc(OCC(=O)Nc2cc(-c3nn4c(C)nnc4s3)ccc2C)ccc1Cl | 8.97 µM (active) |
| COc1ccc(C(=O)C(C)(C)NO)cc1 | > 79.4 µM (not active) |
| O=c1c(Cl)nc2cc(Cl)ccc2n1CCNc1ncc(C(F)(F)F)cc1Cl | 36.3 µM (not active) |

# ---- query compound ----
Measured EC50 of COc1cccc(/C=c2/s/c(=C(\C#N)C(=O)N3CCOCC3)n(-c3ccccc3)c2=O)c1 : > 79.4 µM (not active)

* * *

Target: Luciferin 4-monooxygenase (Photinus pyralis)
Sequence (P08659 whole entry): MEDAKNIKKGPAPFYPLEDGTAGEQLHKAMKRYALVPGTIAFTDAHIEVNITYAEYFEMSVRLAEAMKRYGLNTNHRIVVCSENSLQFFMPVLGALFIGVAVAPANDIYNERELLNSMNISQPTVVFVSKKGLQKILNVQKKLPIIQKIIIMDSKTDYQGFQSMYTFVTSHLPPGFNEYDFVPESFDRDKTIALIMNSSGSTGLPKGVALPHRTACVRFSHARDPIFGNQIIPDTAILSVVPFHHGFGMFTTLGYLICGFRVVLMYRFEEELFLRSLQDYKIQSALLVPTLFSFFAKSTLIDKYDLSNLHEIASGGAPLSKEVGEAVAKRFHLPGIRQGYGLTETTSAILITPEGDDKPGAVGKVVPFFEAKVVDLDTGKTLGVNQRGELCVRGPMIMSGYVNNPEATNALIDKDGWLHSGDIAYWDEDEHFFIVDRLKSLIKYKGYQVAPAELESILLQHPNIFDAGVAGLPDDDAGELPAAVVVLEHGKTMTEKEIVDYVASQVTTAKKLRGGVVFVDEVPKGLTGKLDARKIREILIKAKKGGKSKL
Test: inhibition of purified Photinus pyralis luciferase – biochemical, luminescence, dose response (AID 1891)
Active and inactive are the calls of the source.
Known EC50 of a selection of compounds

Below, 4 compounds whose answers are already recorded.
| Compound | System tested | EC50 |
| --- | --- | --- |
| Cc1ccc(Cl)cc1NC(=O)c1cc(S(=O)(=O)N2CCOCC2)cn1C | Luciferin 4-monooxygenase (Photinus pyralis) | > 112 µM (not active) |
| CCOC(=O)C(C)n1cnc2c(nnn2-c2ccc(F)cc2)c1=O (stereo not given) | Luciferin 4-monooxygenase (Photinus pyralis) | > 112 µM (not active) |
| COc1ccc(C2NC(=O)c3[nH]nc(C)c32)c(OC)c1 (stereo not given) | Luciferin 4-monooxygenase (Photinus pyralis) | > 112 µM (not active) |
| O=C(Nc1ccc(N2CCOCC2)cc1)c1cn2ccccc2n1 | Luciferin 4-monooxygenase (Photinus pyralis) | 4.45 µM (active) |

Item: Cc1[nH]c2ccccc2c1C(=O)CSc1nncn1C | EC50: > 112 µM (not active)

Sourced from ChEMBL document CHEMBL1201862
